For each record, write down the corresponding glycan array binding signal (z-score).
Molecular target: Neu5Ac(a2-6)Gal(b1-4)GlcNAc(b1-3)Gal(b1-4)GlcNAc(b1-6)[Gal(b1-3)]GalNAc
Assay: glycan array binding signal (z-score within array); higher = stronger binding
Details: glycan notation: IUPAC condensed, linker removed
This is one part of a sample in which the strongest signals are shown more often than they occur.
Give bare numbers.

{"binder": "Aap arpt (Staphylococcus epidermidis) (protein) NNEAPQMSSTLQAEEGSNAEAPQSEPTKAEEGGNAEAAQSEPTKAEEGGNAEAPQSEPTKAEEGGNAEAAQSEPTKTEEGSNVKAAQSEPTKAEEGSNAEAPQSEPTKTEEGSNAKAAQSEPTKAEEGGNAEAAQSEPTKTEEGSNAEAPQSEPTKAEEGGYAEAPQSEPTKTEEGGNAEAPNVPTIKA", "glycan array binding signal (z-score)": 0.045}
{"binder": "Apa (Mycobacterium tuberculosis), Rv1860 (protein) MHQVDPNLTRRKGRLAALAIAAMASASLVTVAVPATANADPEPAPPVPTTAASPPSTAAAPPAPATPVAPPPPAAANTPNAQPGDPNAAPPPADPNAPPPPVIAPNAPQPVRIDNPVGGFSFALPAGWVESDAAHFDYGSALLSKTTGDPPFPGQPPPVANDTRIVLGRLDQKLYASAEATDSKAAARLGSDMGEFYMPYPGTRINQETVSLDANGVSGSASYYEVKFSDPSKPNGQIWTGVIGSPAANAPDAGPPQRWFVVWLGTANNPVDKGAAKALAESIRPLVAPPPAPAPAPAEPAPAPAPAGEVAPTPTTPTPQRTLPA", "glycan array binding signal (z-score)": -0.533}
{"binder": "SfaEH (Escherichia coli), Q1RDG5 (protein) LLCRNNQTGQVFNSGDTSFRVNVSPVVQYDKSISVLDLSQLVSCQNEDSTGQNYDYLKILKGSGFSPALDTKTYGRLDFTSRPTGYARQLPLQFDLQVTEAFYQYGVWKPFPAKLYLYPAPGVFGKVINNGDLLATLYVNKFSTKGQEAGERNFTWRFYATNDVYIQTGTCRVSSNNVKVDLPSYPGGPVTVPLTVRCDQTQSVSYTLSGPVTGSGNTVFANTAASGSGGVGIQLSDNVGPVPAGQPRSLGQVGSSPVSLGLKASYALTGQASPTPGAVQSVINVTFSYN", "glycan array binding signal (z-score)": 0.079}
{"binder": "CBM40 CPF071 (Clostridium perfringens) (protein) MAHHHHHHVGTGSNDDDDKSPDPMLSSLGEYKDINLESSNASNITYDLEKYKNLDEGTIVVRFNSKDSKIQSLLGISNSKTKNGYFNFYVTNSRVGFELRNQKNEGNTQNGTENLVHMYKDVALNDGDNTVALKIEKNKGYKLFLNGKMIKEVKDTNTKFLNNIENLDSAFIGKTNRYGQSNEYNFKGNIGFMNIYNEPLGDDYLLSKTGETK", "glycan array binding signal (z-score)": 0.025}

Consider the following items and state reported glycan array binding signal (z-score) for each.
1. Pwp3 (Candida glabrata) (protein) MGSSHHHHHHSSGLVPRGSHMASKNPVDFTTVCQFPDNFSKKPGFLATTARLGLWITGNSYKELLNYPGTFTLTTQQASTTTPNIQLRGTDLFTTIYGLTVYPLYLLVELQGYFVPTQSGMYTFSLTGSDDAAIIFIGNPSTFPCDAFKTWPQATANDITVTDSINPSRTLYMVKGVAYPLRIAYYNGLGNGVLNAAFTDPSGTKRTDWNGYIWQYDQCSTCTYK
2. SBD-G4S3-SBD (protein) MASIPSSASVQLDSYNYDGSTFSGKIYVKNIAYSKKVTVVYADGSDNWNNNGNIIAASFSGPISGSNYEYWTFSASVKGIKEFYIKYEVSGKTYYDNNNSANYQVSTGGGGSGGGGSGGGGSEFASIPSSASVQLDSYNYDGSTFSGKIYVKNIAYSKKVTVVYADGSDNWNNNGNIIAASFSGPISGSNYEYWTFSASVKGIKEFYIKYEVSGKTYYDNNNSANYQVST
3. Mg3lysM (Mycosphaerella graminicola) (protein) APQNPPTSCSAAPQPTGTGSPGTVCGSTTFTNYTVKAGDTLGAIAKQYNSGVCDIAKVNGIDNPDYIKPDQVLSIPANCVTPDNTSCVKPVPVITNTCVLGVGSTYTVKSGDSFSAIATSFNITLASLEARNPQIPNYDLIFPGQVINTPLCPNSVCDSIGTYVIESGDIFYNLAQSNNVTVGQLESLNVNVNVTDIHPGDIIILPHNCHNITASA

0.018
-0.221
0.12
